Origin of the recorded values: patent US20090105278A1

Provide the reported inhibition at 0.5 µM of each item.
study-system: human CYP11B2 (Homo sapiens)
Sequence (P19099 25-503): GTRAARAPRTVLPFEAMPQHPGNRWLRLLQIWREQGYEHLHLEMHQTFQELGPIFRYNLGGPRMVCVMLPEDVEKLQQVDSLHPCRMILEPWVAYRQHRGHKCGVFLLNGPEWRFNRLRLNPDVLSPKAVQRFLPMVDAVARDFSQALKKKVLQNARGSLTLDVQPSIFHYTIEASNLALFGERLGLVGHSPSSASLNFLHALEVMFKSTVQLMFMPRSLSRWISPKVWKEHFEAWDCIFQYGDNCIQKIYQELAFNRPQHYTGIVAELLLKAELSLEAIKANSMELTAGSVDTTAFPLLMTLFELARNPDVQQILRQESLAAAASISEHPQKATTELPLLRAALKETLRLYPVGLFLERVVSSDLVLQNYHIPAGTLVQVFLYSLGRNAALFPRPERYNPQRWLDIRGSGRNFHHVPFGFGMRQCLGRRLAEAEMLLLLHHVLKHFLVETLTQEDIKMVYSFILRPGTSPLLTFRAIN
assay-procedure: Screening test in transgenic fission yeast (S. pombe PE1) expressing human CYP11B2
Assay type: cell-based
Design: expressed in transfected cells
condition-notes: S. pombe cells which express human CYP11B2; deoxycorticosterone substrate 100 nM; inhibitor 500 nM; read-out: % Inhibition human hCYP11B2
Where a name gives a salt, the structure may show the parent alone.
Give bare numbers, in %.

CCOc1ccc2c(c1)CC/C2=C\c1cccnc1 [Compound 19a, Hydrochloride]
67
Fc1ccc2c(c1)CC/C2=C\c1cccc2cnccc12 [Compound 30a, Hydrochloride]
60
Clc1ccc2c(c1)CC/C2=C\c1cccnc1 [Compound 7a, Hydrochloride]
75
Clc1cccc2c1CC/C2=C\c1cccnc1 [Compound 25a, Hydrochloride]
92
N#Cc1ccc2c(c1)CC/C2=C/c1cnc[nH]1.O=C(O)C(=O)O [Compound 45b, oxalate]
65
C(=C1/CCc2ccccc21)/c1ccncc1
55
Clc1ccc2c(c1)CC/C2=C/c1cccnc1 [Compound 7b, Hydrochloride]
68
Fc1ccc2c(c1)CC/C2=C\c1cccnc1 [Compound 5a, Hydrochloride]
88

Now take the following compound into account.
QUERY: Observed inhibition at 0.5 µM on human CYP11B2 (Homo sapiens) for N#Cc1ccc2c(c1)CC/C2=C\c1cnc[nH]1.O=C(O)C(=O)O [Compound 45a, oxalate] , please.
RESULT: 49

====

study-system: human CYP11B1 (Homo sapiens)
Construct: expressed in transfected cells; host or cells: V79 MZh11B1 (Chinese hamster lung fibroblasts)
Sequence (P15538 25-503): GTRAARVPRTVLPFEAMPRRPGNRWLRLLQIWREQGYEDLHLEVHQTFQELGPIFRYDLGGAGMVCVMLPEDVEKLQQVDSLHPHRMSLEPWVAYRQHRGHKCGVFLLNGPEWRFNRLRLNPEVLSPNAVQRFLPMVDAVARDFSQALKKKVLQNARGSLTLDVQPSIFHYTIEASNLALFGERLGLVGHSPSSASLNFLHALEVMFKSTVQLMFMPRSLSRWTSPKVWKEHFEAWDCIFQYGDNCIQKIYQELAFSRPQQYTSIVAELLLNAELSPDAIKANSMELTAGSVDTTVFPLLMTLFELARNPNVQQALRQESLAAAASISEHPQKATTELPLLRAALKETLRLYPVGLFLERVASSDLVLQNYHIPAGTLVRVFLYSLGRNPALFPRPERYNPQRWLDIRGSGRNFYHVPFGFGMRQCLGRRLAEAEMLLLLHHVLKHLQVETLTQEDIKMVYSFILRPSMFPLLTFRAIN
assay-procedure: V79 MZh 11B1 cells inhibition test
Assay type: cell-based
condition-notes: hamster fibroblasts which express human CYP11B1; deoxycorticosterone substrate 100 nM; read-out: IC50 V79 11B1 hCYP11B1
Where a name gives a salt, the structure may show the parent alone.
metric: IC50 (nM)
One number for each entry, in nM.

Use the examples below as a reference point.
Fc1ccc2c(c1)CC/C2=C\c1cccc2cnccc12 [Compound 30a, Hydrochloride]
1130
Fc1ccc2c(c1)CC/C2=C\c1cccnc1 [Compound 5a, Hydrochloride]
311
Fc1cccc2c1CC/C2=C\c1cccnc1 [Compound 24a, Hydrochloride]
774

Batch of 6 molecules: report IC50 for each.
1. c1cncc(-c2ccc3cccc4c3c2CC4)c1 [Compound 50]
2. COc1ccc2c(c1)CCC/C2=C/c1cccnc1.Cl [Compound 13b, Hydrochloride]
3. Fc1ccc2c(c1)CC/C2=C/c1ccncc1 [Compound 6b, Hydrochloride]
4. COc1ccc2c(c1)CCC/C2=C\c1cccnc1 [Compound 13a, Hydrochloride]
5. C(=C1/CCc2ccccc21)/c1cnc[nH]1 [Compound 42a]
6. C(=C1\CCc2ccccc21)/c1ccncc1 [Compound 2b]

RESULT:
1. 2450
2. 206
3. 257
4. 903
5. 25.9
6. 1320

====

study-system: human CYP11B2 (Homo sapiens)
assay-procedure: V79 MZh 11B2 cells inhibition test
condition-notes: hamster fibroblasts which express human CYP11B2; deoxycorticosterone substrate 100 nM; read-out: IC50 V79 11B2 hCYP11B2
Where a name gives a salt, the structure may show the parent alone.
Provide the reported log10 IC50 of each item.
The common logarithm of IC50 in nM is what is listed.

Fc1ccc2c(c1)CC/C2=C\c1cccc2cnccc12 [Compound 30a, Hydrochloride]
1.76

Batch of 6 compounds: report log10 IC50 for each.
1. Clc1ccc2c(c1)CC/C2=C\c1ccncc1 [Compound 8a, Hydrochloride]
2. CCOc1ccc2c(c1)CC/C2=C\c1cccnc1 [Compound 19a, Hydrochloride]
3. Fc1cccc2c1CC/C2=C\c1cccnc1 [Compound 24a, Hydrochloride]
4. Clc1cccc2c1CC/C2=C\c1cccnc1 [Compound 25a, Hydrochloride]
5. CCOc1ccc2c(c1)CC/C2=C/c1cccnc1 [Compound 19b, Hydrochloride]
6. Brc1ccc2c(c1)CC/C2=C\c1cccnc1 [Compound 9a, Hydrochloride]

RESULT:
1: 3.18; 2: 1.90; 3: 1.32; 4: 0.94; 5: 2.39; 6: 1.57

Batch of 4 compounds: report log10 IC50 for each.
1. COc1cccc2c1/C(=C/c1cccnc1)CC2 [Compound 26a, Hydrochloride]
2. C(=C1\CCc2ccccc21)/c1cccnc1.Cl [Compound 1b, Hydrochloride]
3. C/C(=C1/CCc2ccccc21)c1cccnc1.Cl [Compound 38a, Hydrochloride]
4. Brc1ccc2c(c1)CC/C2=C\c1ccncc1 [Compound 10a, Hydrochloride]

RESULT:
[1.43, 1.96, 1.98, 3.42]

Batch of 7 compounds: report log10 IC50 for each.
1. C(=C1/CCc2ccccc21)/c1cnc[nH]1 [Compound 42a]
2. COc1ccc2c(c1)CCC/C2=C/c1cccnc1.Cl [Compound 13b, Hydrochloride]
3. Fc1ccc2c(c1)CC/C2=C/c1cccnc1 [Compound 5b, Hydrochloride]
4. C(=C1\CCc2ccccc21)/c1ccncc1
5. Clc1ccc2c(c1)CC/C2=C\c1cccnc1 [Compound 7a, Hydrochloride]
6. c1cncc(-c2ccc3cccc4c3c2CC4)c1
7. Fc1ccc2c(c1)CC/C2=C/c1cccc2cnccc12 [Compound 30b, Hydrochloride]

RESULT:
1. 1.61
2. 2.94
3. 1.03
4. 2.97
5. 1.42
6. 1.00
7. 1.42

====

study-system: human placental CYP19 (Homo sapiens)
Construct: The enzyme was obtained from the microsome fraction of fresh human placenta; from tissue; host or cells: human placenta, microsomal fraction
Sequence (P11511 whole entry): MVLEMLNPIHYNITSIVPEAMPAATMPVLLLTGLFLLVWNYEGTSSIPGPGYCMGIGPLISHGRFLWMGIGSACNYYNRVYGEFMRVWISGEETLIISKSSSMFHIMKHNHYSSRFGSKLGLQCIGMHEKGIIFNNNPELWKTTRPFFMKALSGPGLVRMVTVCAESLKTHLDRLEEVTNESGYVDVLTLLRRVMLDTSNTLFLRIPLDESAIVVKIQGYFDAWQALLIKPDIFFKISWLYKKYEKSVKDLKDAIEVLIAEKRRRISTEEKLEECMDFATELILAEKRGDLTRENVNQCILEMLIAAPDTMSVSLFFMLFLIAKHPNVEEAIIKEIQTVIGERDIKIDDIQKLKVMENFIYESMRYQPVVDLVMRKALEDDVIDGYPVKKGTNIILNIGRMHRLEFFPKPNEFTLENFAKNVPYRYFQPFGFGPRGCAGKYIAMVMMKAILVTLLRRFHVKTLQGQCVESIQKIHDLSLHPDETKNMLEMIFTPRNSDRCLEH
assay-procedure: IC50 of CYP19 (human placental microsomes)
Type: biochemical
Protocol: The isolated microsomes were suspended in a minimum volume of phosphate buffer (0.05 M; pH 7.4; […]). In addition, DTT (10 mM) and EDTA (1 mM) were added to protect the enzyme from degradation reactions. […] The compounds to be tested were dissolved in DMSO and diluted with buffer to the desired concentration. The final DMSO concentration of the control and inhibitor incubations was about 20%. Each vessel was preincubated in a water bath at 30° C. for 5 min. […]
metric: pIC50
Give bare numbers, as −log10 of the molar value.

QUERY: Observed pIC50 on human placental CYP19 (Homo sapiens) for C(=C1\CCc2ccccc21)/c1cccnc1.Cl [Compound 1b, Hydrochloride] , please.
RESULT: 5.45

====

study-system: human CYP17 (Homo sapiens, UniProt P05093)
Construct: made in house; host or cells: E. coli pJL17/OR (membrane fraction)
Sequence (P05093 1-508): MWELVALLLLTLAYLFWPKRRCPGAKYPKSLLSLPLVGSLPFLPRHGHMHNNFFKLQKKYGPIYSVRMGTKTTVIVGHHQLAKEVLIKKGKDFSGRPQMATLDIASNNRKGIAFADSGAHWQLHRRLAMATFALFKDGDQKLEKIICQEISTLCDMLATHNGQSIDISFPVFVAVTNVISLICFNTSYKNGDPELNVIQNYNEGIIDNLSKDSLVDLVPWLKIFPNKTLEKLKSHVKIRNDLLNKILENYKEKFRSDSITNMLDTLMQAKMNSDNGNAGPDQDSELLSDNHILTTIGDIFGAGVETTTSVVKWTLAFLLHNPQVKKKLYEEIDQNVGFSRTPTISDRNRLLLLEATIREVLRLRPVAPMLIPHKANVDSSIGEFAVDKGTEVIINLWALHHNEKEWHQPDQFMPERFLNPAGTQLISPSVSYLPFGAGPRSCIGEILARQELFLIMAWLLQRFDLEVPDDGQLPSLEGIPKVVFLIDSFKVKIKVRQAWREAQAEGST
assay-procedure: Percent inhibition of CYP17 (membrane fraction of E. coli pJL17/OR)
Type: biochemical
condition-notes: E. coli which expresses human CYP17; 5 mg/ml protein; progesterone substrate 2.5 μM; inhibitor 2.5 μM; read-out: % Inhibition human CYP17
Structures can show the parent of a compound that is named as a salt.
The threshold is inclusive: inhibition at 2.5 µM of exactly 10% counts as Criterion met; values below receive Criterion not met.

Please review the entries below; each comes with its answer.
CCOc1ccc2c(c1)CC/C2=C/c1cccnc1 [Compound 19b, Hydrochloride]
Criterion not met
Brc1ccc2c(c1)CC/C2=C/c1cccnc1 [Compound 9b, Hydrochloride]
Criterion met
Fc1ccc2c(c1)CC/C2=C\c1cnc[nH]1 [Compound 47a]
Criterion met
COc1ccc2c(c1)CCC/C2=C\c1cccnc1 [Compound 13a, Hydrochloride]
Criterion met
C(=C1/CCCc2ccccc21)/c1cccnc1.Cl [Compound 3a, Hydrochloride]
Criterion not met
Fc1ccc2c(c1)CC/C2=C/c1cccc2cnccc12 [Compound 30b, Hydrochloride]
Criterion met
Fc1ccc2c(c1)CC/C2=C\c1cncnc1 [Compound 28a, Hydrochloride]
Criterion not met
N#Cc1ccc2c(c1)CC/C2=C\c1cnc[nH]1.O=C(O)C(=O)O [Compound 45a, oxalate]
Criterion met
Clc1ccc2c(c1)CC/C2=C/c1cccnc1 [Compound 7b, Hydrochloride]
Criterion met

Would you kindly look at the next entry?
QUERY: Item C(=C1/CCc2ccccc21)/c1cnc[nH]1 [Compound 42a] with inhibition at 2.5 µM of 10% or above?
RESULT: Criterion met
